- protocol-details: Cytotoxic Profiling in HEK 293 Cell Line of Diverse Libraries Using Quantitative High-Throughput Screening; also: nearly all actives have a fitted effect of over 60% in size
- experimental-parameters: HEK 293 viability, ATP luminescence (CellTiter-Glo), 48-72 h; series mostly up to 115 µM
- From the text: Cell-based phenotypic screening is a commonly used approach to discover biological pathways, novel drug targets, chemical probes and high-quality hit-to-lead molecules. Many hits identified from high-throughput screening campaign are ruled out through a series of follow-up potency, selectivity/specificity, and cytotoxicity assays. […]
Screen size: about 94,000 compounds; about 6,200 (6.6%) were called active. Roughly 31% stayed inconclusive and do not appear here. Calls follow the shape of the dose curve; as a rule, active = well fitted inhibition curve with a large enough effect; inconclusive = small, poorly fitted or top-dose-only effect; inactive = flat fitted curve, though single readings scatter. The full list was thinned out, with actives kept by preference.
Just give me one of these, please: active, inactive

Name the outcome recorded for CN1CCN(C(=O)CC2=C3CCCCC3NC2=O)CC1 (stereo unspecified) in the assay.
inactive

Name the outcome recorded for NC(=O)c1ccc(OC2CCN(C(=O)c3ccc(F)cc3)CC2)nc1 in the assay.
inactive

Name the outcome recorded for CN(C)CCNC(=O)[C@H]1C[C@@](C)(C(=O)O)N(C)[C@H]1c1ccc(Cl)cc1 in the assay.
inactive

Name the outcome recorded for COc1ccc2[nH]c3c(c2c1)CCNC31CCN(C(=O)Cn2ccnc2)CC1 in the assay.
inactive

Name the outcome recorded for O=C(NCC1CCNCC1)c1ccc(C2CCNC2)cc1 (stereo unspecified) in the assay.
inactive

Name the outcome recorded for Cc1ccccc1N1Cc2c(NCC(C)(C)C)ncnc2N(C)CC1=O in the assay.
inactive

Name the outcome recorded for COc1ccc(-c2cccc(C(=O)NCc3cccc(Cl)c3)c2)nn1 in the assay.
active

Name the outcome recorded for COc1ccc(-c2ccc(C(=O)N3CCN(C(=O)c4cccc(Cl)c4)CC3)cc2)nn1 in the assay.
inactive

Name the outcome recorded for COCCOCC(=O)N1CCC2(CC1)NCCc1c2[nH]c2ccccc12 in the assay.
inactive

Name the outcome recorded for Cc1c(C(=O)N2CCn3nc(CO)cc3C2)cnc2cc(=O)[nH]n12 in the assay.
inactive

Name the outcome recorded for O=C(C1CCCO1)N1CCC2(CC1)NCCc1c2[nH]c2ccccc12 (stereo unspecified) in the assay.
inactive

Cited source for all entries: PubChem BioAssay AID1345083
